Values were extracted from the NIST ThermoML archive (doi:10.1021/je800831d).

Conditions: 298.15 K; 101 kPa; Liquid
attribute_measured: mass density (kg/m3)

>  <smiles_input>
CCCCCO

>  <attribute_measured>
mass density

>  <reported_result>
811.037

$$$$
>  <smiles_input>
CCCCCCCO

>  <attribute_measured>
mass density

>  <reported_result>
818.813

$$$$
>  <smiles_input>
CCCO

>  <attribute_measured>
mass density

>  <reported_result>
799.813

$$$$
>  <smiles_input>
C1CCCC1

>  <attribute_measured>
mass density

>  <reported_result>
733.634

$$$$

###

Details: 308.15 K; 101 kPa; Liquid
attribute_measured: mass density (kg/m3)

>  <smiles_input>
CCCCCO

>  <reported_result>
803.683

$$$$
>  <smiles_input>
CCCCCCCO

>  <reported_result>
811.73

$$$$
>  <smiles_input>
C1CCCC1

>  <reported_result>
726.571

$$$$
>  <smiles_input>
CCCO

>  <reported_result>
791.692

$$$$
